Target: human ORL1 (Homo sapiens, UniProt P41146)
Construct: expressed in transfected cells; host or cells: CHO cells (G418-selected)
Sequence (P41146 whole entry): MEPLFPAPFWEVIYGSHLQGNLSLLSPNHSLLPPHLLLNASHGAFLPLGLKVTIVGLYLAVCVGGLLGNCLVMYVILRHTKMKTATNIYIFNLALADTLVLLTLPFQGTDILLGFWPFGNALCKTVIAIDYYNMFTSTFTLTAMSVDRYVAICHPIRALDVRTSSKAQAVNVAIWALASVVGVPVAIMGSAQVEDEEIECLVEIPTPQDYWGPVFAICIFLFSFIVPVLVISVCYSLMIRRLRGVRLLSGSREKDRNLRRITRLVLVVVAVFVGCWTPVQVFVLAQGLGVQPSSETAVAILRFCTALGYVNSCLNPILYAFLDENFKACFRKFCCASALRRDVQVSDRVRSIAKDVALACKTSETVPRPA
Assay: Stimulation of [35S]GTPγS binding in membranes of CHO cells transfected with human ORL-1
Assay type: biochemical
Measured Attribute: pEC50
Field pEC50 (float): negative decimal logarithm of the concentration in molar.

// Ac-RYYRWR-NH2 [Ac-RYYRWR-NH2] : pEC50 value = 8.92

----------
Target: human ORL1 (Homo sapiens, UniProt P41146)
Construct: expressed in transfected cells; host or cells: CHO cells (G418-selected)
Experiment: Stimulation of [35S]GTPγS binding in membranes of CHO cells transfected with human ORL-1
Type: biochemical
Conditions: read-out: % Stimulation ± SEM of [35S]GTPγS binding
Square brackets hold non-standard residues; d marks the D form. Peptide text beside a SMILES is read from it. Phe(4-CH2SO3H) = N[C@@H](Cc1ccc(CS(=O)(=O)O)cc1)C(=O)O; Phe(4-Me) = Cc1ccc(C[C@H](N)C(=O)O)cc1; hPhe = N[C@@H](CCc1ccccc1)C(=O)O; Ahx = NCCCCCC(=O)O
Measured Attribute: Emax

Some solved cases for reference:
CC(=O)NCCCCCC(=O)N[C@@H](Cc1ccc(O)cc1)C(=O)N[C@@H](Cc1ccc(O)cc1)C(=O)N[C@@H](CCCNC(=N)N)C(=O)N[C@@H](Cc1c[nH]c2ccccc12)C(=O)N[C@@H](CCCNC(=N)N)C(N)=O [VII-53-B] (Ac-[Ahx]YYRWR-NH2) : 39.5%
CC(=O)N[C@@H](CCCNC(=N)N)C(=O)N[C@@H](Cc1ccc(C)cc1)C(=O)N[C@@H](Cc1ccc(C)cc1)C(=O)N[C@@H](CCCNC(=N)N)C(=O)N[C@@H](Cc1c[nH]c2ccccc12)C(=O)N[C@@H](CCCNC(=N)N)C(N)=O [VII-17-B] (Ac-R[Phe(4-Me)][Phe(4-Me)]RWR-NH2) : < 20%

Observed Emax on human ORL1 (Homo sapiens, UniProt P41146), entry CC(=O)N[C@@H](CCCNC(=N)N)C(=O)N[C@@H](Cc1ccc(O)cc1)C(=O)N[C@@H](Cc1ccc(CS(=O)(=O)O)cc1)C(=O)N[C@@H](CCCNC(=N)N)C(=O)N[C@@H](Cc1c[nH]c2ccccc12)C(=O)N[C@@H](CCCNC(=N)N)C(N)=O [VII-75-B] (Ac-RY[Phe(4-CH2SO3H)]RWR-NH2) , equals < 20%

Observed Emax on human ORL1 (Homo sapiens, UniProt P41146), entry CC(=O)N[C@@H](CCCNC(=N)N)C(=O)N[C@@H](CCc1ccccc1)C(=O)N[C@@H](CCc1ccccc1)C(=O)N[C@@H](CCCNC(=N)N)C(=O)N[C@@H](Cc1c[nH]c2ccccc12)C(=O)N[C@@H](CCCNC(=N)N)C(N)=O [VII-49-B, Ac-Arg-hPhe-hPhe-Arg-Trp-Arg-NH2] (Ac-R[hPhe][hPhe]RWR-NH2) , equals < 20%

----------
Biological target: human ORL1 (Homo sapiens)
Construct: expressed in transfected cells; host or cells: CHO cells (G418-selected)
Test: Stimulation of [35S]GTPγS binding in membranes of CHO cells transfected with human ORL-1
Format: biochemical
Settings: read-out: % Stimulation ± SEM of [35S]GTPγS binding
Square brackets hold non-standard residues; d marks the D form. Peptide text beside a SMILES is read from it. Trp(5-CN) = N#Cc1ccc2[nH]cc(C[C@H](N)C(=O)O)c2c1
Measured Attribute: Emax (%)
Answer in %, number only, no unit symbol.

// CC(=O)N[C@@H](CCCNC(=N)N)C(=O)N[C@@H](Cc1ccc(O)cc1)C(=O)N[C@@H](Cc1ccc(O)cc1)C(=O)N[C@@H](CCCNC(=N)N)C(=O)N[C@@H](Cc1c[nH]c2ccc(C#N)cc12)C(=O)N[C@@H](CCCNC(=N)N)C(N)=O [VII-51-A, Ac-Arg-Tyr-Tyr-Arg-Trp(5-CN)-Arg-NH2] (Ac-RYYR[Trp(5-CN)]R-NH2) : Emax value = 49.1

----------
// reported Hill Coefficient for each item listed
Biological target: human ORL1 (Homo sapiens)
Construct: expressed in transfected cells; host or cells: CHO cells (G418-selected)
Assay: [3H]nociceptin binding to membranes of CHO cells transfected with human ORL1
Details: Table 5
Square brackets hold non-standard residues; d marks the D form. Peptide text beside a SMILES is read from it. Phe(4-CN) = N#Cc1ccc(C[C@H](N)C(=O)O)cc1; Phe(4-NH2) = Nc1ccc(C[C@H](N)C(=O)O)cc1; Ac6c = NC1(C(=O)O)CCCCC1

Some solved cases for reference:
CC(=O)Nc1ccc(C[C@H](NC(=O)[C@H](Cc2ccc(O)cc2)NC(=O)[C@H](CCCNC(=N)N)NC(C)=O)C(=O)N[C@@H](CCCNC(=N)N)C(=O)N[C@@H](Cc2c[nH]c3ccccc23)C(=O)N[C@@H](CCCNC(=N)N)C(N)=O)cc1 [VII-77-A, Ac-Arg-Tyr-Phe(4-NHAc)-Arg-Trp-Arg-NH2] (Ac-RY[Phe(4-NH2)](Ac)RWR-NH2) : 0.62
CC(=O)N[C@@H](CCCNC(=N)N)C(=O)N[C@@H](Cc1ccc(C#N)cc1)C(=O)N[C@@H](Cc1ccc(O)cc1)C(=O)N[C@@H](CCCNC(=N)N)C(=O)N[C@@H](Cc1c[nH]c2ccccc12)C(=O)N[C@@H](CCCNC(=N)N)C(N)=O [VII-43-C, Ac-Arg-Phe(4-CN)-Tyr-Arg-Trp-Arg-NH2] (Ac-R[Phe(4-CN)]YRWR-NH2) : 0.73

Observed Hill Coefficient on human ORL1 (Homo sapiens), entry N=C(N)NCCC[C@H](NC(=O)[C@H](Cc1c[nH]c2ccccc12)NC(=O)[C@H](CCCNC(=N)N)NC(=O)[C@H](Cc1ccc(O)cc1)NC(=O)[C@H](Cc1ccc(O)cc1)NC(=O)[C@H](CCCNC(=N)N)NC(=O)C1(N)CCCCC1)C(N)=O [VII-4-B] (H-[Ac6c]RYYRWR-NH2) , equals 1.0

----------
Target: human ORL1 (Homo sapiens)
Construct: expressed in transfected cells; host or cells: CHO cells (G418-selected)
Experiment: Stimulation of [35S]GTPγS binding in membranes of CHO cells transfected with human ORL-1
Format: biochemical
Conditions: read-out: % Stimulation ± SEM of [35S]GTPγS binding
Numbered stars: 1 amine (or outer) side, 2 acyl side, 3 side chain; on linkers, the order of the positions; unused ones are H or OH. Square brackets hold non-standard residues; d marks the D form. Peptide text beside a SMILES is read from it. X1 = O=C([C@H](CCc1ccc([N+](=O)[O-])cc1[N+](=O)[O-])N[*:1])[*:2]; Phe(4-NH2) = Nc1ccc(C[C@H](N)C(=O)O)cc1; Phe(4-F) = N[C@@H](Cc1ccc(F)cc1)C(=O)O; Dab = NCC[C@H](N)C(=O)O; Dap = NC[C@H](N)C(=O)O
Define the label as Y when Emax is strictly less than 30% and as N in all remaining cases.

Worked examples follow.
CC(=O)N[C@@H](CCCNC(=N)N)C(=O)N[C@@H](Cc1ccc(O)cc1)C(=O)N[C@@H](Cc1ccc(F)cc1)C(=O)N[C@@H](CCCNC(=N)N)C(=O)N[C@@H](Cc1c[nH]c2ccccc12)C(=O)N[C@@H](CCCNC(=N)N)C(N)=O [VII-61-B, Ac-Arg-Tyr-Phe(4-F)-Arg-Trp-Arg-NH2] (Ac-RY[Phe(4-F)]RWR-NH2) : N
CC(=O)N[C@@H](CCCNC(=N)N)C(=O)N[C@@H](Cc1ccc(F)cc1)C(=O)N[C@@H](Cc1ccc(O)cc1)C(=O)N[C@@H](CCCNC(=N)N)C(=O)N[C@@H](Cc1c[nH]c2ccccc12)C(=O)N[C@@H](CCCNC(=N)N)C(N)=O [VII-31-B, Ac-Arg-Phe(4-F)-Tyr-Arg-Trp-Arg-NH2] (Ac-R[Phe(4-F)]YRWR-NH2) : N
CC(=O)N[C@@H](CCN)C(=O)N[C@@H](Cc1ccc(O)cc1)C(=O)N[C@@H](Cc1ccc(O)cc1)C(=O)N[C@@H](CCCNC(=N)N)C(=O)N[C@@H](Cc1c[nH]c2ccccc12)C(=O)N[C@@H](CCCNC(=N)N)C(N)=O [VII-67-A, Ac-Dab-Tyr-Tyr-Arg-Trp-Arg-NH2] (Ac-[Dab]YYRWR-NH2) : Y
CC(=O)N[C@@H](CCCNC(=N)N)C(=O)N[C@@H](Cc1ccc(O)cc1)C(=O)N[C@@H](CCc1ccc([N+](=O)[O-])cc1[N+](=O)[O-])C(=O)N[C@@H](CCCNC(=N)N)C(=O)N[C@@H](Cc1c[nH]c2ccccc12)C(=O)N[C@@H](CCCNC(=N)N)C(N)=O [VII-71-B] (Ac-RY[X1]RWR-NH2) : N

Record CC(=O)Nc1ccc(C[C@H](NC(=O)[C@H](Cc2ccc(O)cc2)NC(=O)[C@H](CCCNC(=N)N)NC(C)=O)C(=O)N[C@@H](CCCNC(=N)N)C(=O)N[C@@H](Cc2c[nH]c3ccccc23)C(=O)N[C@@H](CCCNC(=N)N)C(N)=O)cc1 [VII-77-A, Ac-Arg-Tyr-Phe(4-NHAc)-Arg-Trp-Arg-NH2] (Ac-RY[Phe(4-NH2)](Ac)RWR-NH2) : is its Emax strictly below 30%?
Y

Record CC(=O)N[C@@H](CN)C(=O)N[C@@H](Cc1ccc(O)cc1)C(=O)N[C@@H](Cc1ccc(O)cc1)C(=O)N[C@@H](CCCNC(=N)N)C(=O)N[C@@H](Cc1c[nH]c2ccccc12)C(=O)N[C@@H](CCCNC(=N)N)C(N)=O [VII-65-F, Ac-Dap-Tyr-Tyr-Arg-Trp-Arg-NH2] (Ac-[Dap]YYRWR-NH2) : is its Emax strictly below 30%?
Y
